Some compounds, each annotated with its measured herbicidal activity VERPE.
Test system: VERPE
experimental.details: Post-emergence herbicidal action
Format: in vivo, Veronica persica
experimental.setup: 80 g/ha, rated visually after about 3 weeks vs untreated controls
Form entry: value (%) — number only.

Here are 2 compounds together with their reported answers.
CCn1nnnc1NC(=O)c1ccc(C(F)(F)F)c2c1OCS2 [Example 3-52] :: 100
Cn1nnnc1NC(=O)c1ccc(C(F)F)c2c1OCS2 [Example 2-54] :: 90

Prompt line: Identify the reported herbicidal activity VERPE for the following entry. Cn1nnnc1NC(=O)c1ccc(C(F)(F)F)c2c1OCS2(=O)=O [Example 2-83]
Response line: 90

Prompt line: Identify the reported herbicidal activity VERPE for the following entry. Cn1nnnc1NC(=O)c1ccc(C(F)(F)F)c2c1OC[S+]2[O-] (stereo not shown) [Example 2-68]
Response line: 100

Prompt line: Identify the reported herbicidal activity VERPE for the following entry. CCn1nnnc1NC(=O)c1ccc(C(F)(F)F)c2c1OCS2(=O)=O [Example 3-82]
Response line: 100

Prompt line: Identify the reported herbicidal activity VERPE for the following entry. Cn1nnnc1NC(=O)c1ccc(C(F)F)c2c1OCS2(=O)=O [Example 2-84]
Response line: 100

Prompt line: Identify the reported herbicidal activity VERPE for the following entry. CCn1nnnc1NC(=O)c1ccc(C(F)(F)F)c2c1OC[S+]2[O-] (stereo not shown) [Example 3-67]
Response line: 100

Prompt line: Identify the reported herbicidal activity VERPE for the following entry. Cn1nnnc1NC(=O)c1ccc(C(F)F)c2c1OC[S+]2[O-] (stereo not shown) [Example 2-69]
Response line: 90

Prompt line: Identify the reported herbicidal activity VERPE for the following entry. CSc1ccc(C(=O)Nc2nnnn2C)c2c1OC(F)(F)O2 [Example 2-13]
Response line: 90

Prompt line: Identify the reported herbicidal activity VERPE for the following entry. CCn1nnnc1NC(=O)c1ccc(C(F)F)c2c1OCS2 [Example 3-53]
Response line: 80

###

Some compounds, each annotated with its measured herbicidal activity SETVI.
Tested on: SETVI
experimental.details: Post-emergence herbicidal action
Assay type: in vivo, Setaria viridis
experimental.setup: 80 g/ha, rated visually after about 3 weeks vs untreated controls
Please state the number and follow it with the unit.

Here are 5 compounds together with their reported answers.
CC1Oc2c(C(=O)Nc3nnnn3C)ccc(C(F)(F)F)c2S1(=O)=O (stereo not drawn) [Example 2-106] :: 100%
Cn1nnnc1NC(=O)c1ccc(C(F)(F)F)c2c1OCS2(=O)=O [Example 2-83] :: 90%
Cn1nnnc1NC(=O)c1ccc(C(F)F)c2c1OCS2 [Example 2-54] :: 90%
CC1Oc2c(C(=O)Nc3nnnn3C)ccc(C(F)(F)F)c2S1 (stereo not drawn) [Example 2-94] :: 80%
Cn1nnnc1NC(=O)c1ccc(C(F)F)c2c1OCS2(=O)=O [Example 2-84] :: 100%

Prompt line: Name the value of herbicidal activity SETVI reported for Cn1nnnc1NC(=O)c1ccc(C(F)F)c2c1OC[S+]2[O-] (stereo not drawn) [Example 2-69] when tested on SETVI.
Response line: 80%

Prompt line: Name the value of herbicidal activity SETVI reported for CCn1nnnc1NC(=O)c1ccc(C(F)F)c2c1OCS2 [Example 3-53] when tested on SETVI.
Response line: 80%

Prompt line: Name the value of herbicidal activity SETVI reported for Cn1nnnc1NC(=O)c1ccc(C(F)(F)F)c2c1OC[S+]2[O-] (stereo not drawn) [Example 2-68] when tested on SETVI.
Response line: 90%

Prompt line: Name the value of herbicidal activity SETVI reported for CCn1nnnc1NC(=O)c1ccc(C(F)(F)F)c2c1OCS2 [Example 3-52] when tested on SETVI.
Response line: 100%
